# subject of test: T1, full length human DLL4 (human, UniProt Q9NR61 27-685)
# T1 construct: whole, on cells; also called native DLL4 expressed in HEK293 cells
# assay remarks: FACS competition vs human Notch1/Fc, HEK293 cells with human DLL4
pIC50: −log10 of the molar value.

# binder, pIC50
data = [
    ("21H3 IgG1 (antibody, V domains shown, Formatted as IgG1) VH: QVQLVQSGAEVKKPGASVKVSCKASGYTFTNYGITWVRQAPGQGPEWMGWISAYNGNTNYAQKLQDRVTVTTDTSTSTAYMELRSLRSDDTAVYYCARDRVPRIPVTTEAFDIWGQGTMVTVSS VL: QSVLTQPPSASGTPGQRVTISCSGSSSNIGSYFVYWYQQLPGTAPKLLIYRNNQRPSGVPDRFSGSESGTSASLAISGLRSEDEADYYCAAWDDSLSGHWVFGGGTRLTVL", 9.24),
    ("4B4 IgG2 (antibody, V domains shown, Formatted as IgG2) VH: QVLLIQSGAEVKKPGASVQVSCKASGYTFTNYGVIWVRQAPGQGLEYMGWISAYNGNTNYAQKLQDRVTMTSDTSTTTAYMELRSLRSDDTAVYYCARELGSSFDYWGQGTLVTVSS VL: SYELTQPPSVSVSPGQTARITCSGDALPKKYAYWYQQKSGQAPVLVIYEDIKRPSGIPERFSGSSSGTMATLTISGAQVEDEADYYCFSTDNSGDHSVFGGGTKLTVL", 8.92),
    ("21H3 IgG2 (antibody, V domains shown, Formatted as IgG2) VH: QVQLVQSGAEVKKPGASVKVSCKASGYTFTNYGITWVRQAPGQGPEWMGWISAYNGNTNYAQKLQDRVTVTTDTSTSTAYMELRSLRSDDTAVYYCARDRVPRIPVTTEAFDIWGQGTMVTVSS VL: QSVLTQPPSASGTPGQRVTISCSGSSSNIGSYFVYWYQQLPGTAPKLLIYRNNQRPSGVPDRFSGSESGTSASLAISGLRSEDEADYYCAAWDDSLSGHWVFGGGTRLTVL", 9.14),
    ("4B4 IgG1 (antibody, V domains shown, Formatted as IgG1) VH: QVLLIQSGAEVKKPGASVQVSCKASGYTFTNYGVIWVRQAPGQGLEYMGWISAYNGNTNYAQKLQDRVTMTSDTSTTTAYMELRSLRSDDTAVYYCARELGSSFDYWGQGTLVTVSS VL: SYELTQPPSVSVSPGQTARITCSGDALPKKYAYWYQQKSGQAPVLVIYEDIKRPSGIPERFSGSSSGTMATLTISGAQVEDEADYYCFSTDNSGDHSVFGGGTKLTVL", 9.07),
]

Each recorded value in this set is attributed to patent US20100196385A1.
